system: RXF 393 renal; test: NCI tumour cell line growth inhibition, 48 h
Where a SMILES comes first, the peptide text is derived from it. [ ]: non-standard residue; d: D form. 2Nal = N[CH](Cc1ccc2ccccc2c1)C(=O)O
Given measured TGI, output 1.0 if it is greater than or equal to 30 µM and 0.0 if not.

compound	group
CN(C)CCNC(=O)c1cccc2ncc(-c3ccccc3)nc12	0.0
CC1CCc2c(c(CC3CC(=O)NC(=O)C3)nn2-c2ccccc2)C1 (stereo unspecified)	1.0
CC(C)C(NC(=O)C(CCCCN)NC(=O)C(Cc1c[nH]c2ccccc12)NC(=O)C(Cc1ccc(O)cc1)NC(=O)C(CS)NC(=O)C(N)Cc1ccc2ccccc2c1)C(=O)NC(CS)C(=O)NC(C(N)=O)C(C)O (stereo unspecified) (H-[2Nal]CYWKVCT-NH2; configuration not given here)	1.0
CSc1ccc(C2=NN(C(C)=O)C(c3ccc(F)cc3)C2)cc1 (stereo unspecified)	1.0
CN(C)C(=O)C1CCN(Cc2c[nH]c3ccccc23)CC1	1.0
Cc1ccc(C)n1-n1c(-c2ccccc2)n[nH]c1=O	1.0
C=C1CCC2C3(C)COC(c4ccc(Cl)cc4)OC3CCC2(C)C1/C=C/C1=CCOC1=O (stereo unspecified)	1.0
O=C(Nc1cccnc1)c1ccc2ccc3ccc(C(=O)Nc4cccnc4)nc3c2n1	0.0
NC(=Nc1nc(-c2ccccn2)cc2ccccc12)c1ccccn1	0.0
CN1C(=O)C23CCCCC2CC1(c1ccccc1)S3 (stereo unspecified)	1.0
CCN(CC)CCCC(C)Nc1cc(/C=C/c2ccc(Cl)cc2)nc2cc(N(C)C)ccc12 (stereo unspecified)	0.0
Nc1ccc2c(c1)Oc1c(F)c(F)cc3c(=O)c(C(=O)O)cn-2c13	1.0
CC(=O)C1CCC2C3CC=C4CC(SC(=N)N)CCC4(C)C3CCC12C (stereo unspecified)	0.0
CCN(CC)CC(C)(C)C(=O)/C=C/c1ccc(/C=C/C(=O)C(C)(C)CN(CC)CC)cc1	0.0
CCOC(=O)N1[C@@H]2CCC[C@@H]2C(=O)[C@@H]2CCC[C@@H]21	1.0
Cc1ccc(C2CC(c3cccc(Nc4ccncc4)c3)=NN2c2ccccc2)cc1 (stereo unspecified)	0.0
C[C@]12CC[C@@H]3c4ccc(OCCN5CCCC5)cc4CC[C@H]3[C@@H]1CCC2=O	1.0
CN(C)Cc1cc(N=Nc2ccc(Cl)cc2)ccc1O	0.0
O=c1nc2sc3ccc4ccccc4c3n2[nH]c1=O	1.0
O=C(/C=C/c1ccc(O)c(O)c1)NCCc1ccc(-c2ccccc2)cc1	1.0
CC(C)CN(CC#N)CC(C)C	1.0
CC(=N)N(C)O	1.0
Cc1c(-c2ccccc2)c(C#N)c2nnn(-c3cccc(Cl)c3)c(=O)n12	1.0
CC1=CC(C)(C)Nc2ccc(CSc3ccccc3)cc21	1.0
COCCOCCOCCOc1ccc(C(C#N)N(CCc2ccccc2)C(=O)c2cc(C(=O)N(CCc3ccccc3)C(C#N)c3ccc(OCCOCCOCCOC)cc3)cc(C(=O)N(CCc3ccccc3)C(C#N)c3ccc(OCCOCCOCCOC)cc3)c2)cc1 (stereo unspecified)	1.0
Nc1nc(N)c(N=Nc2ccc(C(=O)O)c(O)c2)c(N)n1	1.0
N#Cc1c(N)nc(N2CCSCC2)c(C#N)c1-c1ccc(O)cc1	1.0
COC1(CC[C@H](C)COC2OC(CO)C(O)C(O)C2O)O[C@H]2C[C@H]3[C@@H]4CC=C5C[C@@H](OC6OC(CO)C(O)C(OC7OC(CO)C(O)C(O)C7O)C6OC6OC(C)C(O)C(O)C6O)CC[C@]5(C)[C@H]4CC[C@]3(C)[C@H]2[C@@H]1C (stereo partly specified)	0.0
COc1ccc2nc3n(c2c1)C(c1c(Cl)cccc1Cl)SC3 (stereo unspecified)	1.0
CC(=O)O/N=C(Cl)/C(Cl)=N/OC(C)=O	1.0
